Record form. Attribute: composite z-score. Fill in for each entry.
assay: small molecules captured by biotinylated probe aFST – biochemical, small-molecule microarray, fluorescence 635/667, stem cell growth factor project, primary screen (AID 1086); details: higher = more signal;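 also: score merges 667 nm fluorescence with signal-to-noise of each printed compound spot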
Give bare numbers.

molecule: COc1ccc(C(=O)Nc2cccc(CN3C(=O)[C@@]4(O[C@@H](CC(=O)N5CCC[C@H]5CO)[C@H]([Si](C)(C)c5ccc(OC)cc5)[C@H]4C)c4ccccc43)c2)cc1
value reported: -0.0084
//
molecule: CC(C)C[C@@H]1NC(=O)[C@@H]2C[C@H](C(=O)NCCCCCCNC(=O)CS)[C@H](c3cccc(OCCO)c3)N2C1=O
value reported: 0.756
//
molecule: C=CCOC(=O)[C@@H]1[C@H]2C(=O)O[C@H](c3ccccc3)[C@H](c3ccccc3)N2[C@H](c2ccc(OCCOC(=O)[C@H]3C[C@H]4C(=O)N5CCC[C@H]5C(=O)N4[C@H]3c3cccc(OCCO)c3)cc2)[C@@]12C(=O)Nc1ccc(I)cc12
value reported: 0.182
//
molecule: CC=CC(O)C1C=CC2C(=O)NC(=O)C2N1Nc1ccc(Cl)cc1Cl (stereo not given)
value reported: 0.114

Value sought for every listed molecule: composite z-score.
1. Cc1ccc(S[C@]2(C(=O)NC(C)C)CC(=O)N(C3CCCCC3)[C@@H]2c2ccc(CO)cc2I)cc1
2. C=CCN1C(=O)[C@@]2(O[C@@H](CCn3cc([C@H](O)c4ccccc4)nn3)[C@H]([Si](C)(C)c3ccc(OC)cc3)[C@H]2C)c2cc(N3C(=O)c4cccc5cccc3c45)ccc21
3. COC(=O)[C@@]1(Cc2ccc(F)cc2)[C@H]2c3cc(C(=O)N(C)C)n(C)c3C[C@H]2CN1C(=O)c1ccccc1

**Result**
[0.276, -0.365, 0.229]

Value sought for every listed molecule: composite z-score.
1. COc1cc(CO)cc(I)c1O[C@H]1C=C(C(=O)NCCO)C[C@@H]2O[C@H]12
2. CCC(CC)C(O)C1C=CC2C(=O)N(c3ccccc3)C(=O)C2N1Nc1ccccc1F (stereo not given)
3. O=C1O[C@@H](c2ccccc2)[C@@H](c2ccccc2)N2[C@@H](c3ccccc3OCCO)[C@]3(C(=O)Nc4ccc(C#CCCO)cc43)[C@@H](C(=O)NC[C@H](O)c3ccccc3)[C@H]12

**Result**
1: 0.164; 2: 1; 3: 0.372

###

Record form. Attribute: composite z-score. Fill in for each entry.
target: Fibroblast growth factor 2 (Homo sapiens); experiment: basic fibroblast growth factor binding to printed compounds – biochemical, small-molecule microarray, 635/667 nm fluorescence, primary screen (AID 1133); conditions: FGF2, fluorescence 635/667, higher = more signal

Here is how some compounds turned out for composite z-score.
compound: O=C(NC1CC1)[C@@H]1c2ccccc2C(=O)N(Cc2cc(C(F)(F)F)cc(C(F)(F)F)c2)[C@H]1c1ccc(CO)cc1
measurement name: composite z-score
value reported: 0.0292
//
compound: CC1=C([C@H](O)CCc2ccccc2)[C@H](CO)n2c(=O)n(-c3ccccc3)c(=O)n2C1
measurement name: composite z-score
value reported: 0.302
//
compound: CN1C(=O)[C@@H]2[C@@H](CC(COc3ccccc3)=C3[C@@H](CCc4ccccc4)OB(O)C[C@@H]32)C1=O
measurement name: composite z-score
value reported: -0.0572

Value sought for every listed compound: composite z-score.
1. CCCNC(=O)[C@@]1(Sc2ccc(C)cc2)CC(=O)N(Cc2ccccc2Cl)[C@@H]1c1ccc(CO)cc1I
2. CCOC(=O)C[C@H]1[C@H](OC(=O)c2cc3ccccc3oc2=O)[C@@H](NC(=O)CC(C)C)c2cc(OCCCO)ccc2N1C(=O)Cc1ccc(OC)cc1
3. COc1cc(CO)cc(I)c1O[C@H]1C=C(C(=O)NCCO)C[C@@H](NC2CCCCCC2)[C@@H]1O
4. O=C1[C@H]2C=C(I)[C@H](C[C@@H]2c2ccccc2)[C@@]12CO2
5. O=C1O[C@H](c2ccccc2)[C@H](c2ccccc2)N2[C@H]1[C@@H](C(=O)N1CCN(c3ncccn3)CC1)[C@]1(C(=O)Nc3ccc(C#CCCO)cc31)[C@H]2c1ccc(O)cc1

**Result**
-1.08
0.443
1.01
0.111
0.115

Value sought for every listed compound: composite z-score.
1. CC(C)NC(=O)[C@@H]1c2ccccc2C(=O)N(Cc2ccc(OC(F)(F)F)cc2)[C@H]1c1ccc(CO)cc1
2. COC(=O)[C@H](Cc1ccc(O)cc1)N[C@@H](/C=C/C1CC1)[C@H](O)Cc1ccccc1
3. COc1ccc(NN2C(C(O)c3ccc(I)cc3)C=CC3C(=O)N(C4CCCCC4)C(=O)C32)cc1 (configuration not stated)
4. CC1CC/C=C\[C@H]2OC34C=CCN(Cn5nnc6ccccc65)C(=O)[C@H]3N(CCCCCCO)C(=O)[C@@H]4C2C(=O)O1 (some centres not stated)

**Result**
1. 1.22
2. 0.0843
3. 0.366
4. -1.09

###

test: probe aDKK1 binding to arrayed compounds – biochemical, biotinylated probe, 635/667 nm fluorescence, primary screen (AID 1099); conditions: small-molecule microarray, higher = more signal;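 also: score merges 667nm spot fluorescence with signal to noise across triplicate slides; reference of the scale not given here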
measurement name: composite z-score

Here is how some molecules turned out for composite z-score.
molecule: O=C1O[C@H](c2ccccc2)[C@H](c2ccccc2)N2[C@H]1[C@@H](C(=O)N1CCN(c3ncccn3)CC1)[C@]1(C(=O)Nc3ccc(C#CCCO)cc31)[C@H]2c1ccc(O)cc1
composite z-score: -0.238

molecule: CC[C@@H]1C=C(C(=O)O)[C@H](c2ccc(OC)cc2)N1S(=O)(=O)c1ccc(C)cc1
composite z-score: -0.0814

molecule: [N-]=[N+]=Nc1ccccc1[C@@H]1OC(c2ccc(OCCCO)cc2)=N[C@]1(CCS(=O)(=O)c1ccccc1)C(=O)NCC(O)CO (some centres undefined)
composite z-score: -0.181

Proceed to the following item.
**Query** Can you look up the measured composite z-score of C=CCNC(=O)[C@H]1[C@@H]2C(=O)O[C@@H](c3ccccc3)[C@@H](c3ccccc3)N2[C@@H](c2ccc(OCCO)cc2)[C@]12C(=O)Nc1ccc(C#CC3(O)CCCCCC3)cc12 for me?
**Result** 0.514

###

biological target: Fibroblast growth factor 10 (Homo sapiens); test: compounds binding fibroblast growth factor 10 – biochemical, small-molecule microarray, 635 nm fluorescence, primary screen (AID 1102); conditions: FGF10 binding, fluorescence 635 nm, higher = more signal
Please mark rule met if the recorded composite z-score is equal to or greater than -0.2, and rule not met if it falls below.

compound: [N-]=[N+]=Nc1ccccc1[C@@H]1OC(c2ccc(OCCCO)cc2)=N[C@]1(Cc1ccccc1)C(=O)NCCN1CCOCC1
assayed system: Fibroblast growth factor 10 (Homo sapiens)
assigned label: rule met

compound: CCCNC(=O)[C@@]1(Sc2ccc(C)cc2)CC(=O)N(Cc2ccccc2Cl)[C@@H]1c1ccc(CO)cc1I
assayed system: Fibroblast growth factor 10 (Homo sapiens)
assigned label: rule not met

compound: C=CCC(OC(C)=O)[C@@H]1[C@@H](N(Cc2ccc(-c3ccccc3)cc2)C(=O)c2cccc3ccccc23)c2cc(OCCCO)ccc2N1C(=O)Cc1ccc(OC)cc1 (stereo partly specified)
assayed system: Fibroblast growth factor 10 (Homo sapiens)
assigned label: rule met

compound: COCCOC(=O)N1C(=O)[C@@]2(c3cc(C#CC4(O)CCCCCC4)ccc31)[C@H](c1ccc(O)cc1)N1[C@H](c3ccccc3)[C@H](c3ccccc3)OC(=O)[C@H]1[C@@H]2C(=O)N1CCCCCCC1
assayed system: Fibroblast growth factor 10 (Homo sapiens)
assigned label: rule met

compound: C=CCC(OC(C)=O)[C@@H]1[C@@H](N(Cc2cccc3ccccc23)C(=O)c2ccc(-c3ccccc3)cc2)c2cc(OCCCO)ccc2N1C(=O)Cc1ccc2ccccc2c1 (stereo partly specified)
assayed system: Fibroblast growth factor 10 (Homo sapiens)
assigned label: rule met

Moving on to the next compound.
**Query** composite z-score >= -0.2 for O=C(NCc1ccccc1)[C@@H]1c2ccccc2C(=O)N(Cc2ccc(OC(F)(F)F)cc2)[C@H]1c1ccc(CO)cc1 ?
**Result** rule not met

###

assay: binders from COS7 lysate, DM2A8 probe, primary screen, torsin A project, cell lysate, small-molecule microarray, fluorescence 635/667 (AID 1065); conditions: higher = more signal, COS7 lysate expressing mutant human TOR1A
Please mark Criterion met if the recorded composite z-score is equal to or greater than 0.6, and Criterion not met if it falls below.

compound: CCCC=C(CCC)[C@@H](NC(=O)c1ccc(C(F)(F)F)cc1)c1ccc(C(F)(F)F)cc1
assigned label: Criterion met

**Query** composite z-score >= 0.6 for COC(=O)[C@@]1(Cc2ccc(OC)cc2)[C@H]2c3cc(C(=O)N4CCCC4)n(CCn4cc([N+](=O)[O-])nc4C)c3C[C@H]2CN1C(=O)c1ccccc1 ?
**Result** Criterion met

**Query** Cool, now CC(C)C(=C=CC[C@H](O)c1ccccc1OCCO)C[C@H](O)c1cc(Cl)cc(Cl)c1O
**Result** Criterion met
